# assayed system: FGF2 (Homo sapiens, UniProt P09038 P09038:135-288)
# Sequence (P09038 135-288, one chain of several): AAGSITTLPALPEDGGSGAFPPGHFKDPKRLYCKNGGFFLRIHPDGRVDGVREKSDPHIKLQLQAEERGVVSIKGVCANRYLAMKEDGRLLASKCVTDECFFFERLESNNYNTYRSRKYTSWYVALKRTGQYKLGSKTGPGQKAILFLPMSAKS
# assay summary: inhibition; SPR inhibition of FGF2-FGFR1alpha(IIIc); each 0.1 uM
# setup conditions: tags: Peprotech
value kind: activity (%)
Could you give me the number in %? Just the number is fine.

Query (binder): GGGAUACUAGGGCAUUAAUGUUACCAGUGUAGUCCC (ssRNA, 2'-OMe at G1,G2,G3,A4,U5,A9,G10,G11,A14,A17,A18,G20,A23,A26; other C and U 2'-F; other purines 2'-OH) [aptamer ID 3(17)] ; field requested: activity
88

Try this binder too: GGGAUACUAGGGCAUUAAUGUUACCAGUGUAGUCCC (ssRNA, 2'-F at U8,U16,U21,U28,U30; 2'-OH at G12,G27,G29; all others 2'-OMe; PS between G29 and U30) [aptamer ID 3(33)]
90

Try this binder too: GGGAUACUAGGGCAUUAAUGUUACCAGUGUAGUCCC (ssRNA, all C and U 2'-F; 2'-OMe at A6; other purines 2'-OH) [aptamer ID 3(9)]
89

All figures here come from patent US20170157165.
